# EXPERIMENTAL_DETAILS: Steady-state pharmacokinetics of cediranib given with chemotherapy
# Assay type: in vivo, human
# EXPERIMENTAL_SETUP: human, plasma, oral, 30 mg, tmax, Arm 2 (with docetaxel), cediranib 30 mg, n=8; median (range)
READOUT_LABEL: Tmax (h)
Write the answer as a number in h, unit excluded.

Query: GET /values?readout=Tmax&item= COc1cc2c(Oc3ccc4[nH]c(C)cc4c3F)ncnc2cc1OCCCN1CCCC1
Response: 5

* * *

# EXPERIMENTAL_DETAILS: Steady-state pharmacokinetics of cediranib given with chemotherapy
# Assay type: in vivo, human
# EXPERIMENTAL_SETUP: human, plasma, oral, 20 mg, AUCss, Arm 1 (with mFOLFOX6), cediranib 20 mg, n=5; geometric mean (CV%)
READOUT_LABEL: AUC
Include the unit right after the number.

Query: GET /values?readout=AUC&item= COc1cc2c(Oc3ccc4[nH]c(C)cc4c3F)ncnc2cc1OCCCN1CCCC1
Response: 986 ng·h/mL
